# Study System: Human GLP-1R (Homo sapiens, UniProt P43220)
# Sequence (P43220 24-463): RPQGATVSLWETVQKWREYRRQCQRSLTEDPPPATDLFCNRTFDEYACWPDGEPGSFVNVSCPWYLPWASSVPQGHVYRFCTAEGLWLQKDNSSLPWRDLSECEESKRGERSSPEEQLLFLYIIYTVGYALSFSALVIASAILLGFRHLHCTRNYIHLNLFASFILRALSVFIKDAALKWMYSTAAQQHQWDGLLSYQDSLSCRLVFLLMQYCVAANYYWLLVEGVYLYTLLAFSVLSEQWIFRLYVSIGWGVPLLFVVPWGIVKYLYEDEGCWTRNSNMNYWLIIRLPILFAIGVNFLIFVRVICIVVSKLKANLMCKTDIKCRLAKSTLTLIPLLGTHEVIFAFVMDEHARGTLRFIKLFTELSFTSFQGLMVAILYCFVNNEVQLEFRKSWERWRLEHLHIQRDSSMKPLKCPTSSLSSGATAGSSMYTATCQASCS
# Protocol: cAMP level determination in human GLP-1R stably transfected HEK293T cells (HTRF cAMP kit)
# Study Conditions: 37°C 30 min
# Procedure: Human GLP-1R HEK293T stably transfected cells were digested with trypsin, terminated with DMEM total (without p/s), centrifuged and washed twice with 1X Stimulation buffer, then resuspended in 1X stimulation buffer and counted. The cells were then prepared as a 1 Million/mL cell suspension in stimulation buffer. […] Stimulation% was calculated based on Min and Max readings (665nm/615nm ratio) using the formula: 100*(ratio Max well - ratio test well)/(ratio Max well - ratio Min well). […]
Readout Label: EC50 (nM)

compound="Cc1cc(-n2ccn(-c3c4c(nn3-c3cc(C)c(F)c(C)c3)CCN(C(=O)c3cc5cc(C6CCOC(C)(C)C6)ccc5n3[C@@]3(c5nc(=O)o[nH]5)C[C@@H]3C)[C@H]4C)c2=O)ccc1C#N (some centres unmarked)" study_system="Human GLP-1R (Homo sapiens, UniProt P43220)" unit_spec=nM endpoint_result=17.6
compound="Cc1cc(-n2nc3c(c2-n2ccn(-c4ccc(C(=O)N(C)C5CC5)cn4)c2=O)[C@H](C)N(C(=O)c2cc4cc(C5CCOC(C)(C)C5)ccc4n2[C@@]2(c4nc(=O)o[nH]4)C[C@@H]2C)CC3)cc(C)c1F (some centres unmarked)" study_system="Human GLP-1R (Homo sapiens, UniProt P43220)" unit_spec=nM endpoint_result=102
